# measurement-context: in toluene, 303.45 K
quantity-name: solubility (mole fraction)
Just the number, please.

Looking up CC1(C)[C@H](C(=O)O)N2C(=O)[C@@H](NC(=O)Cc3ccccc3)[C@H]2S1=O (stereo partly specified) , I found its solubility (mole fraction) recorded as 6.97e-05

----------
# measurement-context: in MIBK, 317.65 K
quantity-name: solubility (mole fraction)
Just the number, please.

Looking up CC1(C)[C@H](C(=O)O)N2C(=O)[C@@H](NC(=O)Cc3ccccc3)[C@H]2S1=O (stereo partly specified) , I found its solubility (mole fraction) recorded as 0.00278

----------
# measurement-context: in MIBK, 297.95 K
quantity-name: solubility (mole fraction)
Just the number, please.

Looking up CC1(C)[C@H](C(=O)O)N2C(=O)[C@@H](NC(=O)Cc3ccccc3)[C@H]2S1=O (stereo partly specified) , I found its solubility (mole fraction) recorded as 0.00213

----------
# measurement-context: in ethyl acetate, 307.45 K
quantity-name: solubility (mole fraction)

Looking up CC1(C)[C@H](C(=O)O)N2C(=O)[C@@H](NC(=O)Cc3ccccc3)[C@H]2S1=O (stereo partly specified) , I found its solubility (mole fraction) recorded as 0.00338

----------
# measurement-context: in ethyl acetate, 283.25 K
quantity-name: solubility (mole fraction)
Just the number, please.

Looking up CC1(C)[C@H](C(=O)O)N2C(=O)[C@@H](NC(=O)Cc3ccccc3)[C@H]2S1=O (stereo partly specified) , I found its solubility (mole fraction) recorded as 0.00227

----------
# measurement-context: in ethyl acetate, 273.15 K
quantity-name: solubility (mole fraction)

Looking up CC1(C)[C@H](C(=O)O)N2C(=O)[C@@H](NC(=O)Cc3ccccc3)[C@H]2S1=O (stereo partly specified) , I found its solubility (mole fraction) recorded as 0.00211

----------
# measurement-context: in n-butyl acetate, 317.65 K
quantity-name: solubility (mole fraction)
Just the number, please.

Looking up CC1(C)[C@H](C(=O)O)N2C(=O)[C@@H](NC(=O)Cc3ccccc3)[C@H]2S1=O (stereo partly specified) , I found its solubility (mole fraction) recorded as 0.00192

----------
# measurement-context: in toluene, 293.95 K
quantity-name: solubility (mole fraction)
Just the number, please.

Looking up CC1(C)[C@H](C(=O)O)N2C(=O)[C@@H](NC(=O)Cc3ccccc3)[C@H]2S1=O (stereo partly specified) , I found its solubility (mole fraction) recorded as 5.26e-05

----------
# measurement-context: in MIBK, 308.05 K
quantity-name: solubility (mole fraction)
Just the number, please.

Looking up CC1(C)[C@H](C(=O)O)N2C(=O)[C@@H](NC(=O)Cc3ccccc3)[C@H]2S1=O (stereo partly specified) , I found its solubility (mole fraction) recorded as 0.00238

----------
# measurement-context: in ethyl acetate, 317.65 K
quantity-name: solubility (mole fraction)
Just the number, please.

Looking up CC1(C)[C@H](C(=O)O)N2C(=O)[C@@H](NC(=O)Cc3ccccc3)[C@H]2S1=O (stereo partly specified) , I found its solubility (mole fraction) recorded as 0.0044

----------
# measurement-context: in toluene, 298.15 K
quantity-name: solubility (mole fraction)
Just the number, please.

Looking up CC1(C)[C@H](C(=O)O)N2C(=O)[C@@H](NC(=O)Cc3ccccc3)[C@H]2S1=O (stereo partly specified) , I found its solubility (mole fraction) recorded as 6.12e-05

----------
# measurement-context: in ethyl acetate, 292.75 K
quantity-name: solubility (mole fraction)

Looking up CC1(C)[C@H](C(=O)O)N2C(=O)[C@@H](NC(=O)Cc3ccccc3)[C@H]2S1=O (stereo partly specified) , I found its solubility (mole fraction) recorded as 0.00256

----------
# measurement-context: in n-butyl acetate, 297.35 K
quantity-name: solubility (mole fraction)

Looking up CC1(C)[C@H](C(=O)O)N2C(=O)[C@@H](NC(=O)Cc3ccccc3)[C@H]2S1=O (stereo partly specified) , I found its solubility (mole fraction) recorded as 0.0011

----------
# measurement-context: in toluene, 323.65 K
quantity-name: solubility (mole fraction)
Just the number, please.

Looking up CC1(C)[C@H](C(=O)O)N2C(=O)[C@@H](NC(=O)Cc3ccccc3)[C@H]2S1=O (stereo partly specified) , I found its solubility (mole fraction) recorded as 0.000113

----------
# measurement-context: in MIBK, 313.35 K
quantity-name: solubility (mole fraction)
Just the number, please.

Looking up CC1(C)[C@H](C(=O)O)N2C(=O)[C@@H](NC(=O)Cc3ccccc3)[C@H]2S1=O (stereo partly specified) , I found its solubility (mole fraction) recorded as 0.00262

----------
# measurement-context: in ethyl acetate, 298.55 K
quantity-name: solubility (mole fraction)

Looking up CC1(C)[C@H](C(=O)O)N2C(=O)[C@@H](NC(=O)Cc3ccccc3)[C@H]2S1=O (stereo partly specified) , I found its solubility (mole fraction) recorded as 0.0028

----------
# measurement-context: in n-butyl acetate, 273.15 K
quantity-name: solubility (mole fraction)
Just the number, please.

Looking up CC1(C)[C@H](C(=O)O)N2C(=O)[C@@H](NC(=O)Cc3ccccc3)[C@H]2S1=O (stereo partly specified) , I found its solubility (mole fraction) recorded as 0.000603

----------
# measurement-context: in n-butyl acetate, 302.95 K
quantity-name: solubility (mole fraction)
Just the number, please.

Looking up CC1(C)[C@H](C(=O)O)N2C(=O)[C@@H](NC(=O)Cc3ccccc3)[C@H]2S1=O (stereo partly specified) , I found its solubility (mole fraction) recorded as 0.00134
